# Subject of test: mPRα (Homo sapiens, UniProt Q86WK9)
# Construct: Full length and truncated mPRγ and mPRα were expressed in wild type cells grown in 2% galactose from the pGREG536 vector; expressed in transfected cells; host or cells: Saccharomyces cerevisiae (BY4742 wild type; also gpa mutants), GAL1-driven plasmids (TPI1 promoter in pJK90)
# Sequence (Q86WK9 whole entry, the tested form may be a part): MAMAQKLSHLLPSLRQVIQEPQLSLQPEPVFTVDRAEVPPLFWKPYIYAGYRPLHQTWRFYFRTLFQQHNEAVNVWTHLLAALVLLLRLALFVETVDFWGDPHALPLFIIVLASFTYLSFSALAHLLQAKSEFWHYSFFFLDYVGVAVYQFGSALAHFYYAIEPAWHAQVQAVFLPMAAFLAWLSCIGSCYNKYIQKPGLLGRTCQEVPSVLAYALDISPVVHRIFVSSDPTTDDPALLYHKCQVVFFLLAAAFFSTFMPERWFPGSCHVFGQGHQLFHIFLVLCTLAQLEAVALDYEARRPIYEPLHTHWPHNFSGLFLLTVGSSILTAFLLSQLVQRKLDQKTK
# Experiment description: cell-based
# Assay setup: mPRα column of Table 4; ligand alone; read-out: EC50
# Source text: Plasmids and primers. Human PAQRs were cloned into various vectors by PCR from commercially/publically available cDNAs. […] The OST4 open reading frame in pJK90 was replaced with the PAQR6 and mPRα open reading frames by gap repair. Primers for all cloning reactions are listed herein. Proteins expressed in pYES260 have an N-terminal 6×-histidine tag followed by a TEV protease cleavage site. Proteins expressed in pGREG536 have an N-terminal 7×-HA tag. […]

{"Molecule": "CC(=O)[C@@]1(O)CC[C@H]2[C@@H]3CCC4=CC(=O)CC[C@]4(C)[C@H]3CC[C@@]21C [17α-hydroxyprogesterone]", "Subject of test": "mPRα (Homo sapiens, UniProt Q86WK9)", "Measurement unit": "nM", "EC50": 10.2}
